B1: TMEM106C (parent)
chain: SEQLVNFTGKAEMGGPFSYVYFFC

Variants of: B1
Assay: protein stability index of a GFP-peptide fusion (GPS, HEK-293T) (PSI 1-6); higher = more stable;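 also: lentivirally expressed fusions sorted by FACS into six bins by GFP to DsRed ratio, PSI derived from sequencing read proportions per bin multiplied by bin number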
Details: c terminus: a fixed tail appended
Returns one of 1 or 0; 1 when protein stability index is >= 3.

Y21R | 0
G15K | 0
L4S | 0
F7P | 1
Y21D | 0
G15T | 0
S1F | 0
G14Y | 1
Y21G | 0
V20K | 0
E2V | 0
G15A | 0
A11F | 1
P16E | 0
N6E | 1
G9M | 0
E2P | 1
F23V | 1
C24V | 1
T8G | 0
N6Q | 0
